- system: Renilla luciferase (Renilla reniformis, UniProt P27652)
- assay_remarks: Detergent titration with Tergitol NP-9, digitonin or no lysing agent, Renilla luciferase (Example 4)
- Assay type: biochemical
- applied_conditions: 0.0500% detergent; Terg
Hi! Could you tag entries with Selective Inhibition (Ff Luc Inh/Ren Luc Inh) below 6 as Met, and those at or above as Not met? Much appreciated.

// below: answered compounds
CCCCC[N+](CCCCC)(CCCCC)CCCCC.[Br-] [Tetrapentylammonium bromide]: Met
CCCCCCCCCCCCCC[N+](C)(C)Cc1ccccc1.[Br-] [Benzyldimethyltetradecylammonium bromide]: Not met
CCCCCCCCCCCC[N+](C)(C)C.[Br-] [Dodecyltrimethylammonium bromide]: Not met
Cc1cc(C)c(C[N+](C)(C)C)cc1C.[Br-]: Met

Shift focus to the following entry.
Record CCCCCCCCCCCC[N+](C)(C)Cc1ccccc1.[Br-] [Benzyldimethyldodecylammonium bromide] : is its Selective Inhibition (Ff Luc Inh/Ren Luc Inh) strictly below 6?
Not met

* * *

- system: Renilla luciferase (Renilla reniformis)
- assay_remarks: Non-detergent compound screen, Renilla luciferase (Example 6)
- Format: biochemical
- applied_conditions: inhibitor 1000 μM
value_kind: Selectivity Value
Answers are plain numbers.

Below, 5 compounds whose answers are already recorded.
COc1ccc(CNC(=O)/C=C/c2ccc3[nH]cc(CCCN(C)C)c3c2)cc1: 40
C=C(C(=O)NCc1ccc(OC)cc1)c1ccc2oc(=O)cc(C)c2c1: 1.04
CCCCCCNC(=O)/C=C/c1ccc2[nH]cc(CCN(C)C)c2c1: 1.9
COc1ccc(CNC(=O)/C=C/c2ccc3[nH]cc(CN(C)C)c3c2)cc1: 14.3
COc1ccc(COC(=O)/C=C/c2ccc3[nH]cc(CCN(C)C)c3c2)cc1: 1.3

// each listed compound needs a value for Selectivity Value
1. CCCCCC[N+](C)(C)CCc1c[nH]c2ccc(/C=C/C(=O)NCc3ccc(OC)cc3)cc12.[I-]
2. COc1ccc(CNC(=O)COc2ccc3[nH]cc(CCN(C)C)c3c2)cc1

1: 990; 2: 1.4

// each listed compound needs a value for Selectivity Value
1. CCCCCCCC[N+](C)(C)CCc1c[nH]c2ccc(/C=C/C(=O)NCc3ccc(OC)cc3)cc12.[I-]
2. CN(C)CCc1c[nH]c2ccc(/C=C/C(=O)N3CCOCC3)cc12
3. COc1ccc(CNC(=O)/C=C/c2ccc3[nH]cc(CCN(C)C)c3c2)cc1

[78.2, 11.4, 48.6]

// each listed compound needs a value for Selectivity Value
1. CCCC[N+](C)(C)CCc1c[nH]c2ccc(/C=C/C(=O)NCc3ccc(OC)cc3)cc12.[I-]
2. COc1ccc(CNC(=O)/C=C/c2ccc3[nH]ccc3c2)cc1
3. COc1ccc(CNC(=O)/C(C#N)=C/c2ccc3[nH]cc(CCN(C)C)c3c2)cc1
4. COc1ccc(CNC(=O)/C=C/c2ccc3c(c2)c(CCN(C)C)cn3Cc2ccccc2)cc1
5. COc1ccc(CNC(=O)/C=C/c2ccc3oc(=O)cc(C)c3c2)cc1

1. 980
2. 2.7
3. 18.9
4. 5.0
5. 1.3

* * *

For each entry below, report its remaining activity at 0.0005 % value.
- system: firefly luciferase (Photinus pyralis)
- Sequence (P08659 whole entry): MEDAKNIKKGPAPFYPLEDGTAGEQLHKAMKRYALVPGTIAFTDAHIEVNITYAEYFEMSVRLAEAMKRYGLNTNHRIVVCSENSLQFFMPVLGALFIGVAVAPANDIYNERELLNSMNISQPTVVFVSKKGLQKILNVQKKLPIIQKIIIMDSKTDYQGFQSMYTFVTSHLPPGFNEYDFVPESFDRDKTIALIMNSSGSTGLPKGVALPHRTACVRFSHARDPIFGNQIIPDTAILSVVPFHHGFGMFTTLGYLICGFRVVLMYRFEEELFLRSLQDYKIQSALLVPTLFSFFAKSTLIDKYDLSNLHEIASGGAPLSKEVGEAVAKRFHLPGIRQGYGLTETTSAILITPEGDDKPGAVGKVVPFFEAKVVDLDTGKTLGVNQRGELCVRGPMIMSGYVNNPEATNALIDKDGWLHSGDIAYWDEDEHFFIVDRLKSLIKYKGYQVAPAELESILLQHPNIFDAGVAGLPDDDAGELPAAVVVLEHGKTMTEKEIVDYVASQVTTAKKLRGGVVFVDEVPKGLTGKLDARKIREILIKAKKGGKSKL
- assay_remarks: Detergent titration with Tergitol NP-9, digitonin or no lysing agent, firefly luciferase (Example 4)
- Format: biochemical
- applied_conditions: 0.0005% detergent; Water; read-out: Relative Firefly Luc Intensity
Give bare numbers, in %.

CCCCC[N+](CCCCC)(CCCCC)CCCCC.[Br-] [Tetrapentylammonium bromide]: 98
Cc1cc(C)c(C[N+](C)(C)C)cc1C.[Br-]: 116
CCCCCCCCCCCCCC[N+](C)(C)Cc1ccccc1.[Br-] [Benzyldimethyltetradecylammonium bromide]: 126
CCCCCCCCCCCC[N+](C)(C)Cc1ccccc1.[Br-] [Benzyldimethyldodecylammonium bromide]: 116
CCCCCCCCCCCCCCCC[N+](C)(C)C.[Cl-] [Cetyltrimethylammonium chloride]: 179

Attention now turns to another entry.
Measured remaining activity at 0.0005 %, CCCCCCCCCCCC[N+](C)(C)C.[Br-] [Dodecyltrimethylammonium bromide] : 107

* * *

- system: Renilla luciferase (Renilla reniformis)
- assay_remarks: Non-detergent compound screen, Renilla luciferase (Example 6)
- Type: biochemical
- applied_conditions: inhibitor 153 μM; 0.5% Tergitol NP-9, 0.03% BDDABr; read-out: Retained Renilla Luciferase Value (%)
For each entry below, report its remaining activity at 153 µM value.
Give bare numbers, in %.

Below, 2 compounds whose answers are already recorded.
COc1ccc(CNC(=O)COc2ccc3[nH]cc(CCN(C)C)c3c2)cc1: 90
COc1ccc(CNC(=O)/C=C/c2ccc3oc(=O)cc(C)c3c2)cc1: 93

Measured remaining activity at 153 µM, COc1ccc(CNC(=O)/C(C#N)=C/CCCCCCCBr)cc1 : 96

* * *

- system: Renilla luciferase (Renilla reniformis)
- Sequence (P27652 1-311): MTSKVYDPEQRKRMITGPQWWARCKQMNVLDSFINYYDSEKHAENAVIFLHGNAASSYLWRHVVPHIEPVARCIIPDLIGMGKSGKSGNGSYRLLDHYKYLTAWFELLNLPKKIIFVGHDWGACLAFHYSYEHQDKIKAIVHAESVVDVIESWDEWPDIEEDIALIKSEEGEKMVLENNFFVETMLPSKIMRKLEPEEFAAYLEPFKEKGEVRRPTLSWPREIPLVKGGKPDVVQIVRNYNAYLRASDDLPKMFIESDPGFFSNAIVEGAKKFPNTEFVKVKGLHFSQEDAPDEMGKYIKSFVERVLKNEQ
- assay_remarks: Detergent titration with Tergitol NP-9, digitonin or no lysing agent, Renilla luciferase (Example 4)
- Assay type: biochemical
- applied_conditions: 0.0005% detergent; Water
Classify by measured Selective Inhibition (Ff Luc Inh/Ren Luc Inh): t if it is equal to or exceeds 2, f if it is smaller.

// below: answered compounds
CCCCCCCCCCCCCCCC[N+](C)(C)C.[Cl-] [Cetyltrimethylammonium chloride]: t
CCCCCCCCCCCCCC[N+](C)(C)Cc1ccccc1.[Br-] [Benzyldimethyltetradecylammonium bromide]: t
Cc1cc(C)c(C[N+](C)(C)C)cc1C.[Br-]: f
CCCCCCCCCCCC[N+](C)(C)Cc1ccccc1.[Br-] [Benzyldimethyldodecylammonium bromide]: t
CCCCCCCCCCCC[N+](C)(C)C.[Br-] [Dodecyltrimethylammonium bromide]: f

Shift focus to the following entry.
Given CCCCC[N+](CCCCC)(CCCCC)CCCCC.[Br-] [Tetrapentylammonium bromide] , state whether its Selective Inhibition (Ff Luc Inh/Ren Luc Inh) is at least 2.
f

* * *

- system: Renilla luciferase (Renilla reniformis)
- assay_remarks: Detergent titration with Tergitol NP-9, digitonin or no lysing agent, Renilla luciferase (Example 4)
- Assay type: biochemical
- applied_conditions: 0.0005% detergent; Terg; read-out: Relative Renilla Luc Intensity
For each entry below, report its remaining activity at 0.0005 % value.
One number for each entry, in %.

Below, 4 compounds whose answers are already recorded.
CCCCCCCCCCCCCC[N+](C)(C)Cc1ccccc1.[Br-] [Benzyldimethyltetradecylammonium bromide]: 96
CCCCCCCCCCCCCCCC[N+](C)(C)C.[Cl-] [Cetyltrimethylammonium chloride]: 95
CCCCC[N+](CCCCC)(CCCCC)CCCCC.[Br-] [Tetrapentylammonium bromide]: 96
CCCCCCCCCCCC[N+](C)(C)Cc1ccccc1.[Br-] [Benzyldimethyldodecylammonium bromide]: 90

// each listed compound needs a value for remaining activity at 0.0005 %
1. Cc1cc(C)c(C[N+](C)(C)C)cc1C.[Br-]
2. CCCCCCCCCCCC[N+](C)(C)C.[Br-] [Dodecyltrimethylammonium bromide]

1: 92; 2: 98

* * *

- system: UniProtKB P27652
- assay_remarks: Detergent titration with Tergitol NP-9, digitonin or no lysing agent, Renilla luciferase (Example 4)
- Assay type: biochemical
- applied_conditions: 0.0050% detergent; Terg
value_kind: Selective Inhibition (Ff Luc Inh/Ren Luc Inh)
Answers are plain numbers.

Below, 5 compounds whose answers are already recorded.
Cc1cc(C)c(C[N+](C)(C)C)cc1C.[Br-]: 1.2
CCCCC[N+](CCCCC)(CCCCC)CCCCC.[Br-] [Tetrapentylammonium bromide]: 1.2
CCCCCCCCCCCCCC[N+](C)(C)Cc1ccccc1.[Br-] [Benzyldimethyltetradecylammonium bromide]: 1.3
CCCCCCCCCCCC[N+](C)(C)Cc1ccccc1.[Br-] [Benzyldimethyldodecylammonium bromide]: 1.7
CCCCCCCCCCCCCCCC[N+](C)(C)C.[Cl-] [Cetyltrimethylammonium chloride]: 1.3

Measured Selective Inhibition (Ff Luc Inh/Ren Luc Inh), CCCCCCCCCCCC[N+](C)(C)C.[Br-] [Dodecyltrimethylammonium bromide] : 1.2

* * *

- system: Renilla luciferase (Renilla reniformis, UniProt P27652)
- assay_remarks: Non-detergent compound screen, Renilla luciferase (Example 6)
- Type: biochemical
- applied_conditions: inhibitor 23 μM; 0.5% Tergitol NP-9, 0.03% BDDABr; read-out: Retained Renilla Luciferase Value (%)
For each entry below, report its remaining activity at 23 µM value.
Numbers only, in %.

// each listed molecule needs a value for remaining activity at 23 µM
1. COc1ccc(CNC(=O)COc2ccc3[nH]cc(CCN(C)C)c3c2)cc1
2. COc1ccc(CNC(=O)/C(C#N)=C/CCCCCCCBr)cc1
3. C=C(C(=O)NCc1ccc(OC)cc1)c1ccc2ncccc2c1
4. COc1ccc(CNC(=O)/C=C/c2ccc3oc(=O)cc(C)c3c2)cc1
5. C=C(C(=O)NCc1ccc(OC)cc1)c1ccc2oc(=O)cc(C)c2c1
6. COc1ccc(COC(=O)/C=C/c2ccc3[nH]cc(CCN(C)C)c3c2)cc1
7. C=C(C(=O)NCc1ccc(OC)cc1)c1ccc2[nH]ccc2c1
8. CCCCCCNC(=O)/C=C/c1ccc2[nH]cc(CCN(C)C)c2c1

96
99
95
100
96
97
95
93
